Hello, the source for this data is ChEMBL document CHEMBL1667822, in case you need it.

Assay: Ratio of drug level in brain to plasma in mouse at 5 mg/kg, ip
Format: ADME, organism-based
Set-up: dose 5 mg/kg, route intraperitoneal
Conditions: read-out: BPR
reported.property: Kp

smiles_structure=CCOc1cccc(NC(=O)c2ccc(N3CCCC3)c(C(F)(F)F)c2)c1 numeric_result=0.5

====

Target: UniProt:Q923Y8
Experiment: Antagonist activity at mouse TAAR1 assessed as residual stimulation by in vitro cAMP functional assay relative to control
Design: concentration or dose not given beside the values
Entries and their measured Activity follow.
reported.property: Activity (%)

smiles_structure=O=C(Nc1cccc(OC(F)F)c1)c1ccc(N2CCCC2)c(C(F)(F)F)c1 reported_property=Activity numeric_result=0
smiles_structure=CC(C)Oc1cccc(NC(=O)c2ccc(N3CCCC3)c(C(F)(F)F)c2)c1 reported_property=Activity numeric_result=0
smiles_structure=O=C(Nc1cccc(Cl)c1)c1ccc(N2CCCC2)c(C(F)(F)F)c1 reported_property=Activity numeric_result=0
smiles_structure=CCOc1cccc(NC(=O)c2ccc(N3CCCC3)c(C(F)(F)F)c2)c1 reported_property=Activity numeric_result=-12
smiles_structure=CCNc1ccc(C(=O)Nc2cccc(OC)c2)cc1[N+](=O)[O-] reported_property=Activity numeric_result=23
smiles_structure=CCCNc1ccc(C(=O)Nc2cccc(OC)c2)cc1[N+](=O)[O-] reported_property=Activity numeric_result=14
smiles_structure=O=C(Nc1cccc(OC(F)(F)C(F)F)c1)c1ccc(N2CCCC2)c(C(F)(F)F)c1 reported_property=Activity numeric_result=0
smiles_structure=COc1cccc(NC(=O)c2ccc(N3CCOCC3)c([N+](=O)[O-])c2)c1 reported_property=Activity numeric_result=0
smiles_structure=COc1cccc(NC(=O)c2cccc([N+](=O)[O-])c2)c1 reported_property=Activity numeric_result=0
smiles_structure=Cc1cccc(NC(=O)c2ccc(N3CCCC3)c(C(F)(F)F)c2)c1 reported_property=Activity numeric_result=0

====

Test: Cmax in mouse at 5 mg/kg, ip
Assay type: ADME, organism-based
Parameters: dose 5 mg/kg, route intraperitoneal
Conditions: in vivo
reported.property: Cmax (ng/mL)

smiles_structure=CCOc1cccc(NC(=O)c2ccc(N3CCCC3)c(C(F)(F)F)c2)c1 unit_tag=ng/mL numeric_result=590

====

IC50 values, listed per item
Target: Trace amine-associated receptor 1 (Mus musculus, UniProt Q923Y8)
Sequence (Q923Y8 whole entry): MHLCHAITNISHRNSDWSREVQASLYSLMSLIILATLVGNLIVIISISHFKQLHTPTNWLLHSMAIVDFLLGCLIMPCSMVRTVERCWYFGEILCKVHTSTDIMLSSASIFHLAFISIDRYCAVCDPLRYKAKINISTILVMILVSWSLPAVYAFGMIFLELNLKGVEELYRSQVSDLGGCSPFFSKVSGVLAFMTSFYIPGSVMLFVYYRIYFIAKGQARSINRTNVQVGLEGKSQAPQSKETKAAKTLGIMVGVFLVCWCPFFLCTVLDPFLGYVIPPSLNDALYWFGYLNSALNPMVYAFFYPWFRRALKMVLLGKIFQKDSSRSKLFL
Assay: Antagonist activity at mouse TAAR1 assessed as reversal of endogenous beta-PEA effect
reported.property: IC50 (nM)

smiles_structure=COc1cccc(NC(=O)c2ccc(N3CCCC3)c(C(F)(F)F)c2)c1 unit_tag=nM numeric_result=67
smiles_structure=CCCNc1ccc(C(=O)Nc2cccc(OC)c2)cc1[N+](=O)[O-] unit_tag=nM numeric_result=13
smiles_structure=COc1cccc(NC(=O)c2ccc(N3CCC(C)CC3)c([N+](=O)[O-])c2)c1 unit_tag=nM numeric_result=60
smiles_structure=CCNc1ccc(C(=O)Nc2cccc(OC)c2)cc1[N+](=O)[O-] unit_tag=nM numeric_result=75

====

Test: Aqueous solubility of the compound
Format: physicochemical
Details: buffer
As shown below, each of these molecules has a reported solubility value.
reported.property: solubility

molecule="COc1cccc(NC(=O)c2ccc(S(=O)(=O)N3CC(C)CC(C)C3)c(F)c2)c1 (racemic)" result="< 1 µg/mL"
molecule=COc1cccc(NC(=O)c2ccc(N3CCC(C)CC3)c([N+](=O)[O-])c2)c1 result="< 1 µg/mL"

====

Experiment: Lipophilicity, log D of the compound
Type: physicochemical
Details: octanol/water
Each item that follows carries a reported logD.
reported.property: logD

smiles_structure=COc1cccc(NC(=O)c2ccc(N3CCC(C)CC3)c([N+](=O)[O-])c2)c1 result="> 3"
smiles_structure=COc1cccc(NC(=O)c2cnc(N3CCC(C)CC3)c(C(F)(F)F)c2)c1 result="> 4"
smiles_structure=COc1cccc(NC(=O)c2ccc(N3CCOCC3)c([N+](=O)[O-])c2)c1 result=2.7

====

Molecular target: Trace amine-associated receptor 1 (Homo sapiens, UniProt Q96RJ0)
Sequence (Q96RJ0 whole entry): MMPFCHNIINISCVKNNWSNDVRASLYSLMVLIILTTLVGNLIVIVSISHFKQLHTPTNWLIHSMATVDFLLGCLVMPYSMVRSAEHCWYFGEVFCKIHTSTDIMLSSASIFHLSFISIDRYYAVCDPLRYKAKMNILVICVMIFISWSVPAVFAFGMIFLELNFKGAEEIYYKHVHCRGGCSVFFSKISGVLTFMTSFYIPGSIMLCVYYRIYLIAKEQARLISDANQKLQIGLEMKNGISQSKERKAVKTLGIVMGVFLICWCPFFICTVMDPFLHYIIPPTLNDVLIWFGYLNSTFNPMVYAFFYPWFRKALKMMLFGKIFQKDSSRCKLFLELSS
Experiment: Antagonist activity at human TAAR1 assessed as reversal of endogenous beta-PEA effect
Listed compounds paired with reported IC50
reported.property: IC50 (µM)

compound=COc1cccc(NC(=O)c2ccc(N3CCC(C)CC3)c([N+](=O)[O-])c2)c1 censoring_qualifier== numeric_result=3.79
compound="COc1cccc(NC(=O)c2ccc(S(=O)(=O)N3CC(C)CC(C)C3)c(F)c2)c1 (racemic)" censoring_qualifier=> numeric_result=10
compound=CCOc1cccc(NC(=O)c2ccc(N3CCCC3)c(C(F)(F)F)c2)c1 censoring_qualifier== numeric_result=7.49

====

Assay: Volume of distribution at steady state in mouse at 2.5 mg/kg, iv
Format: ADME, organism-based
Set-up: dose 2.5 mg/kg, route intravenous
Conditions: in vivo, read-out: Vdss
reported.property: Vd (L/kg)

smiles_structure=CCOc1cccc(NC(=O)c2ccc(N3CCCC3)c(C(F)(F)F)c2)c1 numeric_result=3.7

====

Notes on pKi obtained with Trace amine-associated receptor 1 (Rattus norvegicus, UniProt Q923Y9).
Sequence (Q923Y9 whole entry): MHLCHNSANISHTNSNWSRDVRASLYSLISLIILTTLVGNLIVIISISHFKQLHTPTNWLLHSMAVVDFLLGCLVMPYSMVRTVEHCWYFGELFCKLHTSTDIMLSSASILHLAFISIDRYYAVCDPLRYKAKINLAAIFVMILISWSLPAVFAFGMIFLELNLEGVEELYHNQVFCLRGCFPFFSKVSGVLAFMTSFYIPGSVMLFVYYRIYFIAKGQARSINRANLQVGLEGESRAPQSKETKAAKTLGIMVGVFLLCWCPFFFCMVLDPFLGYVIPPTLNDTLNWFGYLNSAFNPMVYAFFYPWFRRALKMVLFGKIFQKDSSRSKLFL
pKi: −log10 of the molar value.
reported.property: pKi

compound="COc1cccc(NC(=O)c2ccc(S(=O)(=O)N3CC(C)CC(C)C3)c(F)c2)c1 (racemic)" test_system="Trace amine-associated receptor 1 (Rattus norvegicus, UniProt Q923Y9)" reported_property=pKi numeric_result=5.86
compound=CCOc1cccc(NC(=O)c2ccc(N3CCCC3)c(C(F)(F)F)c2)c1 test_system="Trace amine-associated receptor 1 (Rattus norvegicus, UniProt Q923Y9)" reported_property=pKi numeric_result=6.03

====

Readings of Activity for the listed compounds
Target: Trace amine-associated receptor 1 (Mus musculus)
Assay: Antagonist activity at mouse TAAR1 assessed as residual stimulation by in vitro cAMP functional assay relative to control
Set-up: concentration or dose not given beside the values
reported.property: Activity (%)

smiles_structure=COc1cccc(NC(=O)c2ccc(N3CCC3)c([N+](=O)[O-])c2)c1 unit_tag=% numeric_result=9
smiles_structure=COc1cccc(NC(=O)c2ccc(N3CCCCC3)c([N+](=O)[O-])c2)c1 unit_tag=% numeric_result=0
smiles_structure=COc1cccc(NC(=O)c2ccc(Br)c([N+](=O)[O-])c2)c1 unit_tag=% numeric_result=0
smiles_structure=COc1cccc(NC(=O)c2ccc(Nc3ccccc3)c([N+](=O)[O-])c2)c1 unit_tag=% numeric_result=0
smiles_structure=COc1cccc(NC(=O)c2ccc(N3CCCC3)c(C(F)(F)F)c2)c1 unit_tag=% numeric_result=0

====

Here's a batch of molecules along with measured pKi for Trace amine-associated receptor 1 (Mus musculus, UniProt Q923Y8).
pKi: −log10 of the molar value.
reported.property: pKi

molecule="COc1cccc(NC(=O)c2ccc(S(=O)(=O)N3CC(C)CC(C)C3)c(F)c2)c1 (racemic)" test_system="Trace amine-associated receptor 1 (Mus musculus, UniProt Q923Y8)" numeric_result=8.40
molecule=CCOc1cccc(NC(=O)c2ccc(N3CCCC3)c(C(F)(F)F)c2)c1 test_system="Trace amine-associated receptor 1 (Mus musculus, UniProt Q923Y8)" numeric_result=9.05
molecule=O=C(Nc1cccc(Oc2ccccc2)c1)c1ccc(N2CCCC2)c(C(F)(F)F)c1 test_system="Trace amine-associated receptor 1 (Mus musculus, UniProt Q923Y8)" numeric_result=7.09
molecule=COc1cccc(NC(=O)c2ccc(F)c(OC(F)(F)F)c2)c1 test_system="Trace amine-associated receptor 1 (Mus musculus, UniProt Q923Y8)" numeric_result=6.86
molecule=COc1cccc(NC(=O)c2ccc(N3CCN(C)CC3)c([N+](=O)[O-])c2)c1 test_system="Trace amine-associated receptor 1 (Mus musculus, UniProt Q923Y8)" numeric_result=6.79
molecule=COc1cccc(NC(=O)c2cccc(S(C)(=O)=O)c2)c1 test_system="Trace amine-associated receptor 1 (Mus musculus, UniProt Q923Y8)" numeric_result=5.22
molecule=COc1cccc(NC(=O)c2ccc(F)c(F)c2)c1 test_system="Trace amine-associated receptor 1 (Mus musculus, UniProt Q923Y8)" numeric_result=6.64
molecule=COc1cccc(NC(=O)c2ccc(F)c(S(=O)(=O)N3CCCCC3)c2)c1 test_system="Trace amine-associated receptor 1 (Mus musculus, UniProt Q923Y8)" numeric_result=6.16

====

Biological target: Trace amine-associated receptor 1 (Mus musculus) (UniProt Q923Y8)
Sequence (Q923Y8 whole entry): as the sequence (Q923Y8 whole entry) above
Assay: Antagonist activity at mouse TAAR1 assessed as residual stimulation by in vitro cAMP functional assay relative to control
Set-up: concentration or dose not given beside the values
Each record here notes measured Activity.
reported.property: Activity

compound=O=C(Nc1cccc(F)c1)c1ccc(N2CCCC2)c(C(F)(F)F)c1 test_system="Trace amine-associated receptor 1 (Mus musculus) (UniProt Q923Y8)" result=0%
compound=COc1cccc(NC(=O)c2ccc(NC(C)C)c([N+](=O)[O-])c2)c1 test_system="Trace amine-associated receptor 1 (Mus musculus) (UniProt Q923Y8)" result=0%
compound=COc1cccc(NC(=O)c2ccc(Cl)c([N+](=O)[O-])c2)c1 test_system="Trace amine-associated receptor 1 (Mus musculus) (UniProt Q923Y8)" result=0%
compound=COc1cccc(NC(=O)c2ccc(N3CCC(C)CC3)c([N+](=O)[O-])c2)c1 test_system="Trace amine-associated receptor 1 (Mus musculus) (UniProt Q923Y8)" result=0%
compound=CC(=O)c1cccc(NC(=O)c2ccc(N3CCCC3)c(C(F)(F)F)c2)c1 test_system="Trace amine-associated receptor 1 (Mus musculus) (UniProt Q923Y8)" result=0%
compound="COc1cccc(NC(=O)c2ccc(S(=O)(=O)N3CC(C)CC(C)C3)c(F)c2)c1 (racemic)" test_system="Trace amine-associated receptor 1 (Mus musculus) (UniProt Q923Y8)" result=28%
compound=COc1cccc(NC(=O)c2ccc(NCc3ccccc3)c([N+](=O)[O-])c2)c1 test_system="Trace amine-associated receptor 1 (Mus musculus) (UniProt Q923Y8)" result=3%
compound=COc1cccc(NC(=O)c2ccc(N3CCCC3)c([N+](=O)[O-])c2)c1 test_system="Trace amine-associated receptor 1 (Mus musculus) (UniProt Q923Y8)" result=0%
compound=O=C(Nc1cccc(Br)c1)c1ccc(N2CCCC2)c(C(F)(F)F)c1 test_system="Trace amine-associated receptor 1 (Mus musculus) (UniProt Q923Y8)" result=0%
compound=CCc1cccc(NC(=O)c2ccc(N3CCCC3)c(C(F)(F)F)c2)c1 test_system="Trace amine-associated receptor 1 (Mus musculus) (UniProt Q923Y8)" result=0%
